- subject-of-test: Chimeric OX40 construct 1544 (human; mouse) (UniProt P47741)
- Sequence (P43489 other isoform, or with tags, fused parts or gaps mutant, form in doubt): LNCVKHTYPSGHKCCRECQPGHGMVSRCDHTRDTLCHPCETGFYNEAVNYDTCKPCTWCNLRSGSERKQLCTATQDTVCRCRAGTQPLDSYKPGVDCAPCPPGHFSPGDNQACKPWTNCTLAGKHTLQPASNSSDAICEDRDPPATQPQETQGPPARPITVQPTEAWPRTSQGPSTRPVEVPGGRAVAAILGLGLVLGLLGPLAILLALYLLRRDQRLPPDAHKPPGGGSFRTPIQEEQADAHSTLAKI
- assay-notes: flow cytometry, 293-F cells transfected with the construct
A collection of binders and their measured relative MFI (fold over isotype control)

1514/1515 (antibody, V domains shown) VH: EVQLLESGGGLVQPGGSLRLSCAASGFTFGYYYMSWVRQAPGKGLEWVSGISSYGSYTYYADSVKGRFTISRDNSKNTLYLQMNSLRAEDTAVYYCARSGYSNWANSFDYWGQGTLVTVSS VL: DIQMTQSPSSLSASVGDRVTITCRASQSISSYLNWYQQKPGKAPKLLIYAASSLQSGVPSRFSGSGSGTDFTLTISSLQPEDFATYYCQQGDYTLFTFGQGTKLEIK
11.6
1524/1525 (antibody, V domains shown) VH: EVQLLESGGGLVQPGGSLRLSCAASGFTFGSYYMGWVRQAPGKGLEWVSSIGSYYGYTYYADSVKGRFTISRDNSKNTLYLQMNSLRAEDTAVYYCARHDYGALDYWGQGTLVTVSS VL: DIQMTQSPSSLSASVGDRVTITCRASQSISSYLNWYQQKPGKAPKLLIYAASSLQSGVPSRFSGSGSGTDFTLTISSLQPEDFATYYCQQYGPSGLFTFGQGTKLEIK
1.5
1526/1527 (antibody, V domains shown) VH: EVQLLESGGGLVQPGGSLRLSCAASGFTFSGYSMYWVRQAPGKGLEWVSGIGYSGYGTYYADSVKGRFTISRDNSKNTLYLQMNSLRAEDTAVYYCARYYFHDYAAYSLDYWGQGTLVTVSS VL: DIQMTQSPSSLSASVGDRVTITCRASQSISSYLNWYQQKPGKAPKLLIYAASSLQSGVPSRFSGSGSGTDFTLTISSLQPEDFATYYCQQYGSDSLLTFGQGTKLEIK
1.1

Shift focus to the following entry.
Recorded relative MFI (fold over isotype control) of 1166/1167 (antibody, V domains shown) VH: EVQLLESGGGLVQPGGSLRLSCAASGFTFGGYYMSWVRQAPGKGLEWVSAISGSGGSTYYADSVKGRFTISRDNSKNTLYLQMNSLRAEDTAVYYCARYDYASMDYWGQGTLVTVSS VL: DIQMTQSPSSLSASVGDRVTITCRASQSISSYLNWYQQKPGKAPKLLIYAASSLQSGVPSRFSGSGSGTDFTLTISSLQPEDFATYYCQQYYWYGLSTFGQGTKLEIK , please.
14.2

The measurements presented in this section are drawn from patent US20190161555A1.
